Assembled from different publications: IC50 for PIK3CA (human).

Some solved cases for reference:
INSERT INTO results (compound_string, measure, result) VALUES
  ('CN(C)C1CCN(C(=O)c2cnc3ccc(-c4ccc5oc(N)nc5c4)cn23)CC1', 'IC50', '< 1000 nM'),
  ('COc1ncc(-c2ccc3ncc4ncn(C)c4c3n2)cc1NS(=O)(=O)C(F)(F)F', 'IC50', '< 100 nM'),
  ('O=C(NCCO)Nc1ccc(-c2nc(N3CCOCC3)c3ccn(CC(F)(F)F)c3n2)cc1', 'IC50', '110 nM'),
  ('Nc1nc2cc(-c3ccc4ncc(N5CCN(C(=O)[C@H](N)CO)CC5)nc4c3)ccc2o1', 'IC50', '< 100 nM'),
  ('CO[C@@H]1CCN(C(=O)c2cnc3ccc(-c4ccc5oc(N)nc5c4)cn23)C1', 'IC50', '< 100 nM'),
  ('CN1CCN(c2ccc(Nc3ncc4c(n3)S/C(=C/c3ccc([N+](=O)[O-])cc3)C(=O)N4)cc2)CC1', 'IC50', '13 nM'),
  ('C[C@H](Nc1ncnc2scnc12)c1cc2cccc(Cl)c2c(C(=O)N2CCOCC2)n1', 'IC50', '< 10000 nM'),
  ('Nc1nc2cc(-c3ccn4ncc(C(=O)N5CCOCC5)c4c3)cc(Cl)c2o1', 'IC50', '< 100 nM');

Kindly consider the entry below.
Request: Would you mind telling me what IC50 value was observed for O=c1cc(Oc2ccccc2)c2ccc(-c3cn[nH]c3)cc2[nH]1 ?
Result: 2760 nM

* * *

Assembled from different publications: pIC50 for UniProt P42336.
pIC50: −log10 of the molar value.

Some solved cases for reference:
INSERT INTO results (compound_string, result) VALUES
  ('Cc1ccccc1-n1c(Cn2nc(Br)c3c(N)ncnc32)nc2nccc(C)c2c1=O', '< 5.00'),
  ('COc1cccc2c(Br)c([C@H](C)NC(=O)c3c(N)nn4cccnc34)n(-c3ccccc3)c(=O)c12', '< 5.00'),
  ('Nc1nc2cc(-c3ccc4ncc(C(=O)N5CCC5)n4c3)ccc2o1', '> 7.00'),
  ('COc1ccc(-c2ccnc3c2c(/C=C2\Oc4cccc(O)c4C2=O)cn3C)cc1S(=O)(=O)N1CCCCC1', 7.37),
  ('CN1CCN(c2ccc(-c3ccnc4c3c(/C=C3\Oc5cccc(O)c5C3=O)cn4C)cc2)CC1', 6.83),
  ('CC[C@H]1CN(c2nc3c(N4CCOCC4)nc(-c4cnc(N)nc4)nc3n2CC(F)(F)F)CCN1C(=O)[C@H](C)O', '> 8.00'),
  ('Nc1nc2cc(-c3ccc4ncc(N5CC(N6CCOCC6)C5)nc4c3)cc(Cl)c2o1', '> 7.00');

Request: Return pIC50 measured with UniProt P42336 given this molecule: C[C@H]1COCCN1c1nc(-c2cnc(N)nc2)nc2c1CCN(C(=O)c1cc(Cc3n[nH]c(=O)c4ccccc34)ccc1F)C2
Result: 7.53

* * *

Assembled from different publications: IC50 for PIK3CA (human) (UniProt P42336).

Some solved cases for reference:
INSERT INTO results (compound, result) VALUES
  ('CCc1ccccc1-n1c(Cn2nc(-c3cccc(O)c3)c3c(N)ncnc32)cc2cccc(C)c2c1=O', '> 10000 nM'),
  ('O=c1cc(Oc2cccc(NCCc3cccnc3)c2)c2ccccc2[nH]1', '> 10000 nM'),
  ('CCN(CC)c1cnc2ccc(-c3ccc4oc(N)nc4c3)nc2n1', '< 1000 nM'),
  ('Cc1nc2cc(-c3ccc4c(c3)CN(C(=O)N3CC[C@](C)(O)C[C@@H]3c3ccccc3)CCO4)ccc2[nH]1 (racemic)', '1000 to 3000 nM'),
  ('COc1ccc(CS(=O)(=O)c2cc(-c3cnc(N)nc3)cc(N3CCOCC3)c2)cc1', '370 nM'),
  ('Cc1cccc2cc([C@H](C)Nc3ncnc4ccccc34)n(-c3ccccc3)c(=O)c12', '> 10000 nM'),
  ('Nc1ccc(-c2nc(N3CCOCC3)c3nc(-c4cccc(NS(=O)(=O)c5cc(F)ccc5F)c4F)ccc3n2)cn1', '1 to 100 nM'),
  ('Cc1cccc2cc([C@H](C)Nc3ncnc4[nH]cc(C(N)=O)c34)n(-c3ccccc3)c(=O)c12', '< 1000 nM');

Kindly consider the entry below.
Request: Would you mind telling me what IC50 value was observed for Cn1ncc2c(-c3cccc4[nH]ccc34)nc(N3CCOCC3)nc21 ?
Result: 100 to 10000 nM
